- Target of assay: GalNAc6S(b1-4)GlcNAc
- Experiment: glycan array binding signal (z-score within array); higher = stronger binding
- Measurement conditions: glycan notation: IUPAC condensed, linker removed
The full list was thinned out, with the strongest signals kept by preference.
Catalogue of glycan array binding signal (z-score) values
Parameter: glycan array binding signal (z-score)

1) Cohesin-marm-DC-ASGPR-CRD (protein) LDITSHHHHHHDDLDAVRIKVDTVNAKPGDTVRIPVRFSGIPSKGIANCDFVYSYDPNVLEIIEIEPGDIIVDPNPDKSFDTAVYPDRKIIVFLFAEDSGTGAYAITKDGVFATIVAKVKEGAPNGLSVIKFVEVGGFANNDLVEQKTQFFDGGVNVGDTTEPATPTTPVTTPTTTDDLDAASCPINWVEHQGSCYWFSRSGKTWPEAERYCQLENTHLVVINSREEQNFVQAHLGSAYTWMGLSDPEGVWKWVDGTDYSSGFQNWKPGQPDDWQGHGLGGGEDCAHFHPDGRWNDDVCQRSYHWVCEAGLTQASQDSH; 3
2) TIM1 (protein) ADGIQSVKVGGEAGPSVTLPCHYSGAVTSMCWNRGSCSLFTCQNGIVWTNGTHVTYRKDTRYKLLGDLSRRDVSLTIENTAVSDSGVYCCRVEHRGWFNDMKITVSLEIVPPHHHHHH; -0.269
3) GNL (Galanthus nivalis) (protein) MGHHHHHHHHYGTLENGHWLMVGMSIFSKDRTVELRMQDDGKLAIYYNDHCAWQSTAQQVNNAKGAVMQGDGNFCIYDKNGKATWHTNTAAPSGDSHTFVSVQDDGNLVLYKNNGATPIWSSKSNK; -0.21
4) LlpA1 (Pseudomonas fluorescens), Q4KHC3 (protein) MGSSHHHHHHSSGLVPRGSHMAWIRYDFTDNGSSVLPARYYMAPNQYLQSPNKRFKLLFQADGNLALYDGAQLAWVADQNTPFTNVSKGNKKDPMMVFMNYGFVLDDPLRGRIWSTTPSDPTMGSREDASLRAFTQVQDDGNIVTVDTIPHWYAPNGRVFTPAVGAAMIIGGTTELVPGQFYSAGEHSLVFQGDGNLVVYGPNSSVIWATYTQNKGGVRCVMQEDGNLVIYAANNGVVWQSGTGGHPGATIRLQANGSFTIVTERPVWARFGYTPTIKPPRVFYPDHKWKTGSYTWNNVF; 1.35
5) DrGal3 (Danio rerio) (protein) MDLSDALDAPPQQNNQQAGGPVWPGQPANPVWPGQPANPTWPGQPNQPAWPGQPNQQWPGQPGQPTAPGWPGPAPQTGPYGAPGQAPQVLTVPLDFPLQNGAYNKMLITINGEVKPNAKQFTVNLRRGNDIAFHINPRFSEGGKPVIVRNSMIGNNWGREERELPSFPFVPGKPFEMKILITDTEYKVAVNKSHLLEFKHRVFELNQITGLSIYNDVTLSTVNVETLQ; -0.282

Values from the supplement of paper PMC8728848
